- Method: Pharmacokinetic (PK) test in mice
- Type: in vivo
- Setup conditions: mouse; male ICR mice, PO, 20 mg/kg, plasma; read-out: AUCINF_obs
Quantity name: AUC(0-inf)
State the value with its unit after it.

# Molecule, AUC(0-inf)
measured = [
    ("O=C(O)[C@@H]1CN(C(=O)N(c2ccccc2)c2ccccc2)CCN1C(=O)N1c2ccccc2C=Cc2ccccc21 [Compound C2]", "151000 ng·h/mL"),
]

Turning now to a further record.
Task item: What does the data say about its AUC(0-inf)? Entry: O=C(O)[C@@H]1CN(C(=O)N(c2ccccc2)c2ccccc2)CCN1C(=O)N(c1ccccc1)c1ccccc1 [A, reference compound]
Reply: 499 ng·h/mL

====

- Method: Pharmacokinetic (PK) test in mice
- Type: in vivo
- Setup conditions: mouse; male ICR mice, PO, 20 mg/kg, plasma
Quantity name: AUC(0-t) (ng·h/mL)
Value expressed in ng·h/mL; do not type the unit.

# Compound, Quantity name, Endpoint result
records = [
    ("O=C(O)[C@@H]1CN(C(=O)N(c2ccccc2)c2ccccc2)CCN1C(=O)N(c1ccccc1)c1ccccc1 [A, reference compound]", "AUC(0-t)", 495),
]

We now examine a further compound.
Task item: What value of measured AUC(0-t) is listed for O=C(O)[C@@H]1CN(C(=O)N(c2ccccc2)c2ccccc2)CCN1C(=O)N1c2ccccc2C=Cc2ccccc21 ?
Reply: 151000

====

Recorded AUC(0-t) by entry
- Method: Pharmacokinetic (PK) test in mice
- Format: in vivo
- Setup conditions: mouse; male ICR mice, IV, 3 mg/kg, plasma
- Procedure: To male ICR mice, the solution of Compound C2 (1 mg/mL) of the present invention and the solution of control Compound A (1 mg/mL) were administered intravenously (IV) and intragastrically (PO), in both of which the vehicle system is DMSO, solutol and deionized water (1:2:17, v:v:v). For Compound C2 and Compound A, the IV and PO dosages were 3 mg/kg and 20 mg/kg, respectively. […] The pharmacokinetic parameters were calculated using WinNonlin 6.3 software.
Numbers only here, please. The scale is ng·h/mL.

Task item: Tell me the measured AUC(0-t) of O=C(O)[C@@H]1CN(C(=O)N(c2ccccc2)c2ccccc2)CCN1C(=O)N(c1ccccc1)c1ccccc1 [A, reference compound] , please.
Reply: 1190

Task item: Same thing, different compound: O=C(O)[C@@H]1CN(C(=O)N(c2ccccc2)c2ccccc2)CCN1C(=O)N1c2ccccc2C=Cc2ccccc21
Reply: 49000

====

- Method: Pharmacokinetic (PK) test in mice
- Assay type: in vivo
- Setup conditions: mouse; male ICR mice, PO, 20 mg/kg, plasma
This listing pairs compounds with measured MRT last.
Write the answer as a number in h, unit excluded.

# Compound, Endpoint result
records = [
    ("O=C(O)[C@@H]1CN(C(=O)N(c2ccccc2)c2ccccc2)CCN1C(=O)N1c2ccccc2C=Cc2ccccc21", 2.34),
]

Query compound follows.
Task item: I have this compound here, O=C(O)[C@@H]1CN(C(=O)N(c2ccccc2)c2ccccc2)CCN1C(=O)N(c1ccccc1)c1ccccc1 [A, reference compound] , and I need its recorded MRT last.
Reply: 1.06

====

- Method: Pharmacokinetic (PK) test in mice
- Format: in vivo
- Setup conditions: mouse; male ICR mice, IV, 3 mg/kg, plasma; read-out: C0/Cmax
Entries and their Cmax
Write it as a number; the unit ng/mL goes unstated.

# Compound, Cmax (ng/mL)
data = [
    ("O=C(O)[C@@H]1CN(C(=O)N(c2ccccc2)c2ccccc2)CCN1C(=O)N(c1ccccc1)c1ccccc1 [A, reference compound]", 7170),
]

Now for a further compound.
Task item: What does the data say about its Cmax? Entry: O=C(O)[C@@H]1CN(C(=O)N(c2ccccc2)c2ccccc2)CCN1C(=O)N1c2ccccc2C=Cc2ccccc21 [Compound C2]
Reply: 43400

====

- Target system: AT2 Receptor (AT2R) (Homo sapiens (Human), UniProt P50052)
- Sequence (P50052 whole entry): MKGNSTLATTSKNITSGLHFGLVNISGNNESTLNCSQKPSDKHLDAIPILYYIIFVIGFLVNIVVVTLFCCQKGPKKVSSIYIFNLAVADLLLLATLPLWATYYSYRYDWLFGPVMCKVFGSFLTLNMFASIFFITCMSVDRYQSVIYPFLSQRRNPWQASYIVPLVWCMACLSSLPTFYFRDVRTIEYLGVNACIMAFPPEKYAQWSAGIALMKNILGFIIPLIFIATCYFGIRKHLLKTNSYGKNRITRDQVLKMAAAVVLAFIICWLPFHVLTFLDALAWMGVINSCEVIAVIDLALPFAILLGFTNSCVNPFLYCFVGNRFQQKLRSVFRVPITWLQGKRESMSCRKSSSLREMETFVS
Kindly apply the following: satisfied if IC50 is less than 200 nM, not satisfied in every other case.

Record excerpt, results attached:
# Mol smiles, Assigned class
data = [
    ("O=C1Cc2ccccc2N(C(=O)N2CCN(C(=O)N(c3ccccc3)c3ccccc3)C[C@H]2C(=O)NO)c2ccccc21", "not satisfied"),
    ("CCN1C(=O)c2ccccc2N(C(=O)N2CCN(C(=O)N(c3ccccc3)c3ccccc3)C[C@H]2C(=O)O)c2ccccc21", "satisfied"),
]

Task item: Confirm or reject: IC50 of CC(C(=O)N1CCN(C(=O)N2c3ccccc3CC(=O)c3ccccc32)[C@H](C(=O)O)C1)(c1ccccc1)c1ccccc1 lies strictly below 200 nM
Reply: not satisfied

Task item: Same lookup for O=C1Nc2ccccc2N(C(=O)N2CCN(C(=O)N(c3ccccc3)c3ccccc3)C[C@H]2C(=O)O)c2ccccc21 , please.
Reply: not satisfied

Task item: For O=C(N1CCN(C(=O)N2c3ccccc3C=Cc3ccccc32)[C@H](c2nnn[nH]2)C1)N(c1ccccc1)c1ccccc1 then?
Reply: not satisfied

====

Here's a batch of compounds along with measured log10 of IC50 for AT2 Receptor (AT2R) (Homo sapiens (Human), UniProt P50052).
A value of 2 here means IC50 of 100 in nM, since values are log10.

Record excerpt, results attached:
# Mol smiles, Target system, log10 of IC50
rows = [
    ("CCN(Cc1ccccc1)C(=O)N1CCN(C(=O)N2c3ccccc3CC(=O)c3ccccc32)[C@H](C(=O)O)C1", "AT2 Receptor (AT2R) (Homo sapiens (Human), UniProt P50052)", 1.95),
    ("O=C(O)[C@@H]1CN(C(=O)N(c2ccccc2)c2ccccc2)CCN1C(=O)N1CCC[C@H]1c1ccccc1", "AT2 Receptor (AT2R) (Homo sapiens (Human), UniProt P50052)", 1.99),
    ("Cc1cc(CN(C)C(=O)N2CCN(C(=O)N(c3ccccc3)c3ccccc3)[C@H](C(=O)O)C2)sc1C", "AT2 Receptor (AT2R) (Homo sapiens (Human), UniProt P50052)", 1.99),
    ("O=C(O)[C@@H]1CN(C(=O)N2c3ccccc3C=Cc3ccccc32)CCN1C(=O)N1c2ccccc2C=Cc2ccccc21", "AT2 Receptor (AT2R) (Homo sapiens (Human), UniProt P50052)", 1.51),
    ("CS(=O)(=O)NC(=O)[C@@H]1CN(C(=O)N2c3ccccc3CC(=O)c3ccccc32)CCN1C(=O)N(c1ccccc1)c1ccccc1", "AT2 Receptor (AT2R) (Homo sapiens (Human), UniProt P50052)", 2.46),
    ("COc1cccc(N(C(=O)N2CCN(C(=O)N3c4ccccc4CC(=O)c4ccccc43)[C@H](C(=O)O)C2)c2cccc(OC)c2)c1", "AT2 Receptor (AT2R) (Homo sapiens (Human), UniProt P50052)", 1.71),
]

Task item: Lookup: log10 of IC50 / AT2 Receptor (AT2R) (Homo sapiens (Human), UniProt P50052) / COc1ccccc1N(C(=O)N1CCN(C(=O)N2c3ccccc3C=Cc3ccccc32)[C@H](C(=O)O)C1)c1ccccc1
Reply: 0.87

Task item: Now consider O=C(O)[C@@H]1CN(C(=O)N2c3ccccc3C=Cc3ccccc32)CCN1C(=O)N(c1ccccc1)c1ccccc1 and answer again.
Reply: 1.27

Task item: Same question, O=C(O)[C@@H]1CN(C(=O)N2c3ccccc3C=Cc3ccccc32)CCN1C(=O)C(c1ccccc1)c1ccccc1 this time
Reply: 0.81

Task item: // next record O=C(O)[C@@H]1CN(C(=O)C(c2ccccc2)c2ccccc2)CCN1C(=O)N1c2ccccc2C=Cc2ccccc21
Reply: 1.65

Task item: Next compound: O=C(O)[C@@H]1CN(C(=O)N2c3ccccc3Sc3ccccc32)CCN1C(=O)N(c1ccccc1)c1ccccc1
Reply: 1.80

Task item: # iterate: CN(Cc1ccccc1)C(=O)N1CCN(C(=O)C(C)(c2ccccc2)c2ccccc2)[C@H](C(=O)O)C1
Reply: 1.39

====

- Target system: AT2 Receptor (AT2R) (Homo sapiens (Human), UniProt P50052)
Quantity name: pIC50
Answer as the number alone; pIC50 is minus log10 of concentration in mol/L.

Look over these answered cases.
# Mol smiles, pIC50
measured = [
    ("O=C(O)[C@H]1CN(C(=O)N2c3ccccc3C=Cc3ccccc32)CCN1C(=O)N(c1ccccc1)c1ccccc1", 7.26),
    ("CN(C)S(=O)(=O)NC(=O)[C@@H]1CN(C(=O)N(c2ccccc2)c2ccccc2)CCN1C(=O)N1c2ccccc2C=Cc2ccccc21", 7.45),
]

Task item: Which value of pIC50 has been reported for O=C(O)[C@@H]1CN(C(=O)N(c2ccccc2)c2ccccc2)CCN1C(=O)C1(c2ccccc2)CCCCC1 in the records?
Reply: 7.90

Task item: Note, next up: COc1ccccc1N(C(=O)N1CCN(C(=O)N2c3ccccc3C(=O)N(C)c3ccccc32)[C@H](C(=O)O)C1)c1ccccc1OC
Reply: 6.86

====

- Target system: AT2 Receptor (AT2R) (Homo sapiens (Human))
Records here are stratified by IC50; strata: label 0: < 10 nM; label 1: ≥ 10 nM and < 40 nM; label 2: ≥ 40 nM

Worked examples follow.
# Mol smiles, Assigned class
measured = [
    ("O=C(O)[C@@H]1CN(C(=O)N2CCC[C@@H]2c2ccccc2)CCN1C(=O)N(c1ccccc1)c1ccccc1", "label 1"),
    ("Cc1ccccc1N(C(=O)N1CCN(C(=O)N2c3ccccc3C=Cc3ccccc32)[C@H](C(=O)O)C1)c1ccccc1", "label 2"),
    ("O=C1Cc2ccccc2N(C(=O)N2CCN(C(=O)N(c3ccccc3F)c3ccccc3F)C[C@H]2C(=O)O)c2ccccc21", "label 1"),
]

Task item: Class? Entry: O=C(O)[C@@H]1CN(C(=O)C2(c3ccccc3)CCCC2)CCN1C(=O)N(c1ccccc1)c1ccccc1
Reply: label 0

Task item: Next record, please: Cc1ccc(CN(C(=O)N2CCN(C(=O)C(c3ccccc3)c3ccccc3)[C@H](C(=O)O)C2)C2CC2)s1
Reply: label 0

Task item: Also Cc1ccc(CN(C(=O)N2CCN(C(=O)N(c3ccccc3)c3ccccc3)[C@H](C(=O)O)C2)C2CC2)s1 , if possible.
Reply: label 0

Task item: Please give the result for CN(Cc1ccccc1)C(=O)N1CCN(C(=O)N2c3ccccc3C=Cc3ccccc32)[C@H](C(=O)O)C1 too.
Reply: label 2
